# Experimental System: GLUT1 (Homo sapiens, UniProt P11166)
# Construct: endogenous in cells
# Sequence (P11166 whole entry): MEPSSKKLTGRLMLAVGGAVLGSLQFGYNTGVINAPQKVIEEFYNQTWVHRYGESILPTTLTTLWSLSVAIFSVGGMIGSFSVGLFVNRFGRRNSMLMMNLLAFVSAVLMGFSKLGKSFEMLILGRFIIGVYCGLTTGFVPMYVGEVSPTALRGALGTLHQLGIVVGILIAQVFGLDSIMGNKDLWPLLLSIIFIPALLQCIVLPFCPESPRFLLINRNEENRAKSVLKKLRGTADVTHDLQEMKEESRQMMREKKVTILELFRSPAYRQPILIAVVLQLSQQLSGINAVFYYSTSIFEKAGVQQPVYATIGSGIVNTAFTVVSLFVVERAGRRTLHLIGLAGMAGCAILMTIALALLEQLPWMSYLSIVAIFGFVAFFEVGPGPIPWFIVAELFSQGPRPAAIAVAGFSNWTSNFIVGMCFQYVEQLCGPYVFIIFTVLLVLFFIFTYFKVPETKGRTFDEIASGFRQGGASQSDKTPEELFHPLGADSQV
# Test: Indirect measurement of GLUT activity by quantification of intracellular ATP levels (glucose induced ATP increase)
# Measurement Context: DLD1 cells; 1 mM glucose, 1 uM Rotenone, 15 min; standardized to cytochalasin B IC50 values; read-out: IC50 regarding glucose induced ATP increase (GLUT1 inhibition)
# Source text: It is well known that a combination of small-molecule inhibitors of mitochondrial electron transport chain and glucose catabolism synergistically suppress ATP production and impair cellular viability (Ulanovskaya et al., 2008, 2011; Liu, et al. 2001). We therefore used DLD1 or CHO-K1 cells in combination with an oxidative phosphorylation inhibitor to identify GLUT inhibitors. […]
pIC50: −log10 of the molar value.
Assay Metric: pIC50

>>> test_value("CS(=O)(=O)c1ccc(Cn2cc(NC(=O)c3cc(C(N)=O)nc4cc(F)ccc34)c(C(F)(F)F)n2)cc1")
6.90
>>> test_value("Cc1nn(Cc2ccc(F)cc2)cc1NC(=O)c1cc(C(F)(F)F)nc2ccc(Br)cc12")
6.95
>>> test_value("CS(=O)(=O)c1ccc(Cn2cc(NC(=O)c3cc(C(N)=O)nc4ccccc34)c(C(F)(F)F)n2)cc1")
7.21
>>> test_value("CCc1noc(Cn2cc(NC(=O)c3cc(C(F)(F)F)nc4ccc(Br)cc34)c(C)n2)n1")
6.41
>>> test_value("O=C(Nc1cn(Cc2ccc(F)cc2)nc1C(F)(F)F)c1cc(C(F)(F)F)nc2ccc(Br)cc12")
5.93
>>> test_value("CCc1noc(Cn2cc(NC(=O)c3cc(C(N)=O)nc4ccccc34)c(C)n2)n1")
6.37
>>> test_value("Cc1nn(Cc2ccc(C#N)cc2)cc1NC(=O)c1cc(C(N)=O)nc2cc(F)ccc12")
8.51
